Test system: HEK-293T
Assay: Multiplex assay against HEK293T
Type: toxicity, cell-based
Settings: human, 48 h, 1 µM, compound concentration 1 uM, replicate 2
Would you mind telling me the reported Population Hoechst High Intensity Objects (%) of each entry?
Return type: number; implicit unit %.

Entry COc1ccc(NS(=O)(=O)c2sc3ccc(Cl)cc3c2C)cc1N1CCNCC1.Cl : reported Population Hoechst High Intensity Objects (%) = ?
4

I am curious: what Population Hoechst High Intensity Objects (%) value has been reported for CCCn1c(=O)c2[nH]c(C34CC5CC(CC3C5)C4)nc2n(CCC)c1=O ?
4

Look up Population Hoechst High Intensity Objects (%) for this compound: CC(C)N1CCC(C)(C)c2cc(C#Cc3ccc(C(=O)O)cc3)ccc21
2

Would you kindly share the measured Population Hoechst High Intensity Objects (%) for CCC(=O)O[C@]1(C(=O)SCF)[C@H](C)C[C@H]2[C@@H]3C[C@H](F)C4=CC(=O)C=C[C@]4(C)[C@@]3(F)[C@@H](O)C[C@@]21C [FLUTICASONE PROPIONATE] ?
2

What value of Population Hoechst High Intensity Objects (%) has been recorded for this entry: COc1cc2c(NC3CCN(C(C)C)CC3)nc(N3CCC(F)(F)CC3)nc2cc1OCCCN1CCCC1
12

Consider the compound Cc1nc(Cc2cccc(C(F)(F)F)c2)sc1-c1ccc(C(N)=O)nc1 [TP-024n] and give its measured Population Hoechst High Intensity Objects (%).
2

# Population Hoechst High Intensity Objects (%) lookup, item CC(=O)c1cc(-c2cc(C(=O)NC3CC3)ccc2C)c2ncccn12
4

I'd like to know its Population Hoechst High Intensity Objects (%). The compound in question is Cc1cc2c(cc1N1C(=O)c3cccc4c(CCCO)ccc(c34)C1=O)n(C)c(=O)n2C
2

* * *

Tested on: HEK-293T
Experiment: Incucyte cell viability with HEK293T; note: filed as whole numbers so only -1 and 0 and 1 occur
Format: toxicity, cell-based
Conditions: human, 12 h, 10 µM, compound concentration 10 uM, replicate number 2, timepoint 12 hours
measured.attribute: Growth Rate
Answer as a number with no unit attached.

Return reported Growth Rate; argument: Cc1nc2sccn2c(=O)c1CCN1CCC(=C(c2ccc(F)cc2)c2ccc(F)cc2)CC1
0

// Growth Rate lookup, key: C[C@@H](NCCc1ccc(O)cc1)[C@@H](O)c1ccc(O)cc1.Cl (relative stereo)
1

Quick one: Growth Rate for Nc1nc2c(c(N3CCNCC3)n1)CCC1=C2[C@@H]2CCCC[C@@H]2O1 ?
0

// query Growth Rate value for entry Cn1cc(-c2ccc3occ(-c4ccccc4-c4ccccc4)c3n2)cn1
0

Returns the measured Growth Rate for the input compound. Input: CCOc1cc(N2CCC(O)CC2)ccc1Nc1ncc2c(n1)N(C1CCCC1)CCC(=O)N2C
1

Quick check: Growth Rate of Oc1ccc(-c2nc3cc(O)cc(Br)c3o2)cc1 ?
1

Find the recorded Growth Rate belonging to O=C(NCc1ccc(F)cc1)C1CCN(S(=O)(=O)c2cc(Cl)cc(Cl)c2)CC1 and report it.
0

Looking for the measured Growth Rate of COc1cc2c(cc1-c1c(C)noc1C)ncc1[nH]c(=O)n([C@H](C)c3ccccn3)c12 , can you help?
0

Can you share its Growth Rate? I mean this compound: Cc1cc(SCc2sc(-c3ccc(C(F)(F)F)c(F)c3)nc2C)ccc1OCC(=O)O
0

* * *

Answer each item with its documented Population Mitotic Cells (%).
System: U2OS
Assay: Multiplex assay against U2OS
Assay type: toxicity, cell-based
Details: human, 48 h, 10 µM, compound concentration 10 uM, replicate 2
Numbers only here, please. The scale is %.

Would you kindly share the measured Population Mitotic Cells (%) for CCC(=O)O[C@]1(C(=O)SCF)[C@H](C)C[C@H]2[C@@H]3C[C@H](F)C4=CC(=O)C=C[C@]4(C)[C@@]3(F)[C@@H](O)C[C@@]21C [FLUTICASONE PROPIONATE] ?
54

Could you tell me which Population Mitotic Cells (%) is on file for Cc1nc(Cc2cccc(C(F)(F)F)c2)sc1-c1ccc(C(N)=O)nc1 [TP-024n] ?
27

Query: Population Mitotic Cells (%); subject: CCc1cc2c(cc1CC)CC(NC[C@H](O)c1ccc(O)c3[nH]c(=O)ccc13)C2
26

May I ask what Population Mitotic Cells (%) has been recorded for Cl.Cl.Nc1ncnc2c1c(-c1cccc(OCc3ccccc3)c1)cn2[C@H]1C[C@@H](CN2CCC2)C1 ?
3

* * *

So I've got a bunch of molecules here, and I need their Population Mitotic Cells (%) values.
Tested on: U2OS
Assay: Multiplex assay against U2OS
Type: toxicity, cell-based
Conditions: human, 48 h, 10 µM, compound concentration 10 uM, replicate 2
Write it as a number; the unit % goes unstated.

// query Population Mitotic Cells (%) value for entry Nc1nc2c(c(N3CCNCC3)n1)CCC1=C2[C@@H]2CCCC[C@@H]2O1
51

Item under review: CCCn1c(=O)c2[nH]c(C34CC5CC(CC3C5)C4)nc2n(CCC)c1=O . Reported Population Mitotic Cells (%)?
33

Quick one: Population Mitotic Cells (%) of CC(C)N1CCC(C)(C)c2cc(C#Cc3ccc(C(=O)O)cc3)ccc21 ?
0

* * *

Test system: Fibroblast
Experiment: Multiplex assay against human fibroblast
Assay type: toxicity, cell-based
Conditions: 24 h, 1 µM, compound concentration 1 uM, replicate 1
measured.attribute: Total Cell Count
Reply with just the number.

Fill blank: measured Total Cell Count of the compound CCOc1cc2ncc(C#N)c(Nc3ccc(OCc4cccc(F)c4)c(Cl)c3)c2cc1NC(=O)/C=C/CN(C)C is ____.
238

Dear colleague, I am looking for the recorded Total Cell Count of the following compound: Cc1cn(-c2cc(NC(=O)c3ccc4c(c3)CN(c3cncnc3)C[C@@H]4C)cc(C(F)(F)F)c2)cn1
172

Looking for the measured Total Cell Count of COc1cc2c(Nc3ccc(NC(=O)c4ccccc4)cc3)ncnc2cc1OCCCN1CCOCC1 , can you help?
391

For the compound O=C(O)c1ccc2cc(-c3ccc(O)c(C45CC6CC(CC(C6)C4)C5)c3)ccc2c1 , what Total Cell Count is on record?
236

What does the data say about its Total Cell Count? Entry: COc1cc2c(NC3CCN(C(C)C)CC3)nc(N3CCC(F)(F)CC3)nc2cc1OCCCN1CCCC1
167

Please report the recorded Total Cell Count for Cl.Cl.Nc1ncnc2c1c(-c1cccc(OCc3ccccc3)c1)cn2[C@H]1C[C@@H](CN2CCC2)C1 .
141

Reported Total Cell Count for CC(=O)c1cc(-c2cc(C(=O)NC3CC3)ccc2C)c2ncccn12 : what is it?
108

Looking for the measured Total Cell Count of COc1cc(N2CCC(N(C)C)CC2)ccc1Nc1ncc(Cl)c(Nc2ccccc2P(C)(C)=O)n1 , can you help?
204

* * *

Tested on: U2OS
Experiment: Multiplex assay against U2OS
Type: toxicity, cell-based
Conditions: human, 24 h, 10 µM, compound concentration 10 uM, replicate 1
Quick rule: Population Normal (%) of at least 90% means label 1, below that means label 0.

Would you say CCc1cc2c(cc1CC)CC(NC[C@H](O)c1ccc(O)c3[nH]c(=O)ccc13)C2 [INDACATEROL] shows Population Normal (%) at minimum 90%?
label 1

Reported Population Normal (%) reaches at least 90% for CNC(=O)c1cc(Oc2ccc(NC(=O)Nc3cc(C(C)(C)C)nn3-c3ccc4ncccc4c3)c(F)c2)ccn1 [REBASTINIB] ?
label 0

Is it the case that C[C@@H]1CN(c2cc(-c3nn(C)c4ccc(OC5(C)CC5)cc34)ncn2)C[C@H](C)O1 [MLi-2-NC] has Population Normal (%) reaching or exceeding 90%?
label 1

Item Cc1cc2c(cc1N1C(=O)c3cccc4c(CCCO)ccc(c34)C1=O)n(C)c(=O)n2C with Population Normal (%) of 90% or above?
label 1

Check the entry CC(C)N1CCC(C)(C)c2cc(C#Cc3ccc(C(=O)O)cc3)ccc21 : does Population Normal (%) equal or exceed 90%?
label 0

Assess whether reported Population Normal (%) for Nc1ccc(C(=O)Nc2cccc(-c3nc(N4CCOCC4)c4oc5ncccc5c4n3)c2)cn1 sits at 90% or higher.
label 0

Hello, I need to know if N#Cc1cnc(Nc2cc(NC[C@H]3CNCCO3)c(C(F)(F)F)cn2)cn1 [SRA-737] has measured Population Normal (%) not below 90%. Thanks!
label 1

Evaluate CCOc1cc(N2CCC(O)CC2)ccc1Nc1ncc2c(n1)N(C1CCCC1)CCC(=O)N2C : Population Normal (%) at minimum 90%?
label 1

Is reported Population Normal (%) greater than or equal to 90% here: CN(C)CCOc1ccc(-c2nc(-c3ccncc3)c(-c3ccc4c(c3)CC/C4=N\O)[nH]2)cc1 [SB590885]
label 1

Answer whether Population Normal (%) of Cl.Cl.NC1(c2ccc(-c3nc4ccn5c(=O)[nH]nc5c4cc3-c3ccccc3)cc2)CCC1 is greater than or equal to 90%.
label 0

Threshold query (Population Normal (%) >= 90%) on CCOc1cc2ncc(C#N)c(Nc3ccc(OCc4cccc(F)c4)c(Cl)c3)c2cc1NC(=O)/C=C/CN(C)C [HKI-357]
label 1

Hello, I need to know if CC(=O)c1cc(-c2cc(C(=O)NC3CC3)ccc2C)c2ncccn12 has measured Population Normal (%) not below 90%. Thanks!
label 1

Reference source: ChEMBL document CHEMBL4689842
